- testName: Simulated Intestinal Fluid (SIF) Stability Assay
- Type: in vitro ADME
- conditionParameters: pig, simulated intestinal fluid (SIF) with 1% porcine pancreatin, pH 6.5, porcine pancreatin, 37° C.; monomers, Table 6
Where a SMILES comes first, the peptide text is derived from it.
parameterMeasured: half-life at 22 μM

half-life at 22 μM lookup needed for CC(C)C[C@@H]1NC(=O)[C@H]([C@@H](C)O)NC(=O)[C@H](CC(=O)O)NC(=O)[C@H](CO)NC(=O)[C@H](CCCNC(=N)N)N(C)C(=O)c2ccccc2CSC(C)(C)[C@@H](C(=O)N[C@@H](Cc2ccc(O)cc2)C(=O)N[C@@H](CCC(=O)O)C(=O)N[C@H](CCCCN)C(N)=O)NC1=O [compound 78] (HELM PEPTIDE1{[meR].S.D.T.L.[Pen].Y.E.[dK].[am]}|CHEM1{[O=C(c1ccccc1C[*:2])[*:1]]}$PEPTIDE1,CHEM1,1:R1-1:R1|PEPTIDE1,CHEM1,6:R3-1:R2$$$V2.0) , thanks.
1.3 h
